Reference source: paper PMC5540273

System: PYK2
Construct: gene PTK2B
EXPERIMENTAL_CONTEXT: concentration: 1 μM, replicates: in singlicate; n = 1;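 further: KINOMEscan kinase panel screen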
// assign YES if %Inh falls strictly below 6%, else NO (ties count as NO)

>>> class("Oc1cc(Nc2ccnc3cc(I)ccc23)ccc1F")
"NO"
>>> class("CC(=O)N1CCN(c2ccc(Nc3nccc(-c4sc(C(C)C)nc4-c4cccc(NS(=O)(=O)c5cccc(Cl)c5)c4)n3)cn2)CC1")
"YES"
>>> class("COc1cc(Nc2ncc3c(C)nc(-c4cc5ccccc5[nH]4)n3n2)cc(OC)c1OC")
"NO"
>>> class("COc1cc(Nc2nccc(-c3c(-c4cccc(NC(=O)c5c(F)cccc5F)c4)nn4ccccc34)n2)cc(OC)c1OC")
"YES"
>>> class("CN1CCN(CCCNc2nccc(-c3c(-c4ccc(F)cc4)nn4cc(C(F)(F)F)ccc34)n2)CC1")
"YES"
>>> class("Cl.c1ccc(-c2ccc3c(Nc4ccc5[nH]ccc5c4)ccnc3c2)nc1")
"YES"
>>> class("FC(F)(F)c1ccc(/C=C/c2cncnc2Nc2ccc3[nH]c(Cc4ccccc4)nc3c2)cc1")
"NO"

###

Test system: TNK2
EXPERIMENTAL_CONTEXT: concentration: 1 μM, replicates: in singlicate; n = 1
Checkbox rule: %Inh lower than 4% = yes (1); %Inh not lower than 4% = no (0).

>>> class("Cn1cc(-c2[nH]c3cc(NC(=O)[C@H](N)C4CCCCC4)cc4c3c2C=NNC4=O)cn1")
"no (0)"
>>> class("CN(C)S(=O)(=O)c1cc(-c2ccc3nccc(-c4cccc(S(N)(=O)=O)c4)c3c2)cnc1N [GSK1669921]")
"no (0)"
>>> class("Cc1ccc(C(=O)Nc2ccc(Nc3ccnc4cc(-c5nccs5)ccc34)cc2O)cc1.Cl [GW494702]")
"no (0)"
>>> class("O=C(Nc1n[nH]c2nc(-c3ccc(O)cc3)ccc12)C1CC1 [SB-710363]")
"yes (1)"
>>> class("COc1ccc(CNC(=O)NC2CCN(c3ccnc(Nc4ccc(F)cc4)n3)CC2)cc1 [GSK1379788]")
"yes (1)"
>>> class("Cn1cc(-c2ccc3c(c2)CCN3C(=O)Cc2cccc(Cl)c2)c2c(N)ncnc21 [GSK2606590]")
"yes (1)"
>>> class("CN(C)Cc1ccc(-c2ccc3c(Nc4ccc(Oc5ccccn5)cc4)ccnc3c2)o1 [GW567148]")
"no (0)"

###

System: PIP5K1A
EXPERIMENTAL_CONTEXT: concentration: 1 μM, replicates: in singlicate; n = 1
QUANTITY_NAME: %Inh (%)

>>> reading("O=C(Nc1cccc(-c2nn3ccccc3c2-c2ccnc(Nc3cccc(C(F)(F)F)c3)n2)c1)c1c(F)cccc1F")
0
>>> reading("Cl.c1ccc(-c2ccc3c(Nc4ccc5[nH]ccc5c4)ccnc3c2)nc1")
50
>>> reading("Cn1cc(-c2ccc3c(c2)CCN3C(=O)Cc2cccc(F)c2)c2c(N)ncnc21")
0
>>> reading("COC(=O)Nc1nc2ccc(Oc3ccc(NC(=O)Nc4cc(C(F)(F)F)ccc4F)cc3)cc2n1C.Cl")
74
>>> reading("Clc1ccc(-c2nn3ncccc3c2-c2ccnc(Nc3ccc4c(c3)OCCO4)n2)cc1")
17
>>> reading("COc1cc(Nc2nccc(-c3c(-c4cccc(NC(=O)c5c(F)cccc5F)c4)nn4ncccc34)n2)cc(OC)c1OC")
0
>>> reading("COCCOCCOc1cc2ncc3c4ccc(C#N)cc4[nH]c3c2cc1OC")
36
>>> reading("O=C(O)C(F)(F)F.O=C(O)C(F)(F)F.O=c1[nH]ccc2nc(N[C@@H]3CCCNC3)nc(Nc3ccc(S(=O)(=O)N4CCOCC4)cc3)c12")
72
